# TGT: human MC3R (Homo sapiens, UniProt P41968)
# Construct: expressed in transfected cells; host or cells: HEK-293 cells stably expressing the GScAMP22F split-luciferase cAMP sensor (parent reporter line from Promega); MC3R clone generated in-house, G418 selection
# Sequence (P41968 whole entry): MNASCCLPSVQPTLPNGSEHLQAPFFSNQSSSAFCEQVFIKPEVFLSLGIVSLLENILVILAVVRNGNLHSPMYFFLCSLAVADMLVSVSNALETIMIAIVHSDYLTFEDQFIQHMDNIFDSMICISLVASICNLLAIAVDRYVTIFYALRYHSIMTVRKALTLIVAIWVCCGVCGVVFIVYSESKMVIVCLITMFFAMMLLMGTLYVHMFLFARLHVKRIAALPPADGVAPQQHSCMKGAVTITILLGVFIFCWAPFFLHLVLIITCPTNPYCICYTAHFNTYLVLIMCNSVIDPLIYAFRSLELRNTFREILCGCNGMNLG
# EXPERIMENT: split-luciferase cAMP sensor assay, agonist mode (measurement window 1), hMC3R
# Type: cell-based
# CONDITION_LABEL: HEK-293 cells stably expressing hMC3R, agonist mode; read-out: MC3R cAMP EC50
Positions of bridges follow the written chain, without caps; N, C: chain ends. Non-standard residues stand in square brackets, D forms with d. Residues, ends and D or L forms follow the SMILES beside them. d1Nal = N[C@H](Cc1cccc2ccccc12)C(=O)O; Nle = CCCC[C@H](N)C(=O)O; Aib = CC(C)(N)C(=O)O
QUANTITY_NAME: EC50

Some entries whose results are on file:
CCCC[C@H](NC(=O)[C@H](CCCNC(=N)N)NC(C)=O)C(=O)N[C@H]1CSSC[C@@H](C(N)=O)NC(=O)[C@H](Cc2ccccc2)NC(=O)[C@H](CCCNC(=N)N)NC(=O)[C@@H](Cc2ccccc2)NC(=O)[C@H](CCCNC(=N)N)NC1=O [CTX-1622, Arg-Nle-cyclo(Cys-Arg-D-Phe-Arg-Phe-Cys)] (Ac-R[Nle]CR[dF]RFC-NH2; disulfide 3-8 (inferred)): 13 nM
CC(=O)N[C@@H](CCCNC(=N)N)C(=O)N[C@H]1CSSC[C@@H](C(N)=O)NC(=O)[C@H](Cc2c[nH]c3ccccc23)NC(=O)[C@H](CCCNC(=N)N)NC(=O)[C@@H](Cc2ccccc2)NC(=O)[C@H](CCCNC(=N)N)NC(=O)[C@H](C)NC1=O [CTX-1267, Arg-cyclo(Cys-Ala-Arg-D-Phe-Arg-Trp-Cys)] (Ac-RCAR[dF]RWC-NH2; disulfide 2-8): 12 nM
CC1(C)NC(=O)CSC[C@@H](C(N)=O)NC(=O)[C@H](Cc2ccccc2)NC(=O)[C@H](CCCNC(=N)N)NC(=O)[C@@H](Cc2ccccc2)NC(=O)[C@H](CCCNC(=N)N)NC1=O [CTX-1651] ({CH2CO}-[Aib]R[dF]RFC-NH2; thioether N-6): > 10000 nM
CCCC[C@H](NC(=O)[C@H](CCCNC(=N)N)NC(C)=O)C(=O)N[C@H]1CSSC[C@@H](C(N)=O)NC(=O)[C@H](Cc2c[nH]c3ccccc23)NC(=O)[C@H](CCCNC(=N)N)NC(=O)[C@@H](Cc2cccc3ccccc23)NC(=O)[C@H](CCCNC(=N)N)NC1=O [CTX-1611] (Ac-R[Nle]CR[d1Nal]RWC-NH2; disulfide 3-8 (inferred)): 11 nM
CC(=O)N[C@H]1CSSC[C@@H](C(N)=O)NC(=O)[C@H](Cc2c[nH]c3ccccc23)NC(=O)[C@H](CCCNC(=N)N)NC(=O)[C@@H](Cc2ccccc2)NC(=O)[C@H](Cc2c[nH]cn2)NC(=O)CNC1=O [CTX-1206, cyclo(Cys-Gly-His-D-Phe-Arg-Trp-Cys)] (Ac-CGH[dF]RWC-NH2; disulfide 1-7 (inferred)): 12 nM

Okay, now this molecule:
Challenge: In one line, give reported EC50 of the entry CCCC[C@H](NC(=O)[C@H](CCCNC(=N)N)NC(C)=O)C(=O)N[C@H]1CSSC[C@@H](C(N)=O)NC(=O)[C@H](Cc2c[nH]c3ccccc23)NC(=O)[C@H](CCCNC(=N)N)NC(=O)[C@@H](Cc2ccccc2)NC(=O)[C@H](Cc2c[nH]cn2)NC1=O [CTX-1227, Arg-Nle-cyclo(Cys-His-D-Phe-Arg-Trp-Cys)] (Ac-R[Nle]CH[dF]RWC-NH2; disulfide 3-8 (inferred)) .
Response given: 2.8 nM
